GI50 values for the compounds below.
Test system: MDA-MB-231
assay: NCI tumour cell line growth inhibition, 48 h
Activity calls are given as the source filed them. Rule as the data show it: active = GI50 up to about 1.1 µM and inactive = higher.

Cc1cc(N(CCOS(C)(=O)=O)CCOS(C)(=O)=O)ccc1C=O: 28.5 µM (inactive)
c1ccc(CNc2nncc3[nH]cnc23)cc1: > 100 µM (inactive)
COc1cc2c(cc1OCCCOS(C)(=O)=O)N=C[C@@H]1CCCN1C2=O: > 100 µM (inactive)
N#Cc1c(=O)c2ccccc2n2ccccc12: > 100 µM (inactive)

input: For the compound `CC(=O)[C@@H]1C/C(=C\OCc2ccccc2)O[C@H]1C` , give its reported GI50.
output: > 100 µM (inactive)

input: Give me measured GI50, please, for this compound: C[C@H]1CC[C@@]2(OC1)O[C@H]1C[C@H]3[C@@H]4CC[C@@H]5C[C@@H](OC6OC(CO)C(O)C(O)C6OC6OC(CO)C(O)C(O)C6O)CC[C@]5(C)[C@H]4CC[C@]3(C)[C@H]1[C@@H]2C (some centres undefined)
output: 2.09 µM (inactive)

input: Check the records and state GI50 for `S=c1oc(CCCCCCCCc2nn(CNc3ccccc3)c(=S)o2)nn1CNc1ccccc1`
output: > 100 µM (inactive)

input: For the compound `O=C1c2ccccc2C(=O)c2c1ccc1c2OCO1` , give its measured GI50 value.
output: > 100 µM (inactive)

input: Return GI50 for the following compound: O=C1OC(CCCN2CCCCC2)(c2ccccc2)CC12CCCC2 (centres undefined)
output: > 75.9 µM (inactive)

----------
The compounds listed here are annotated with their GI50.
Test system: NCI-H522
assay: NCI tumour cell line growth inhibition, 48 h
The source made the active and inactive calls. Rule as the data show it: active = GI50 up to about 1.1 µM and inactive = higher.

Examples from the recorded data:
CC(C)NC(=O)OCc1c(COC(=O)NC(C)C)c(-c2ccc[n+](COC(=O)Cc3ccccc3)c2)n2c1CCC2: 19 µM (inactive)
CC(C)=CCN(N=O)c1ncnc2[nH]cnc12: > 100 µM (inactive)

Now look at this one.
input: State, for NCI-H522, measured GI50 of the compound listed here: `CO/N=C(\C(=O)N(C)n1cnnc1)c1csc(NC(c2ccccc2)(c2ccccc2)c2ccccc2)n1`
output: > 10 µM (inactive)

----------
Test system: SN12C
assay: NCI tumour cell line growth inhibition, 48 h
Calls of active or inactive are those of the source. Rule as the data show it: active = GI50 up to about 1.1 µM and inactive = higher.
Recorded GI50 by entry

COc1ccc(NC(=O)C(=O)C(C(=O)c2ccccc2)C2OC(=O)c3ccccc32)c([N+](=O)[O-])c1 (stereo not given): > 100 µM (inactive)
CNc1nc2c(C)ccc3nc(N(C)C)[nH]c3c-2n1: 36.1 µM (inactive)
CC1=C(C(=O)O)N2C(=O)[C@@H](NC(=O)C(c3ccccc3)N3CSC(=S)N(C(C)C)C3)C2SC1 (stereo not given in full): > 100 µM (inactive)
C=C/C(C)=C\CC1[C@](C)(O)CC[C@H]2C(C)(C)C(=O)CC[C@]12C (stereo not given in full): > 100 µM (inactive)

Now for the molecule whose GI50 we want.
input: Report GI50 for `c1ccc2c(c1)Cn1c-2nc2ccccc21`
output: > 100 µM (inactive)

----------
Test system: COLO 205
assay: NCI tumour cell line growth inhibition, 48 h
Activity calls are given as the source filed them. No stated cut-off is given here; in the data, active = GI50 up to about 1.1 µM and inactive = higher.
# GI50 listing for each entry below

CC(=O)[C@@H]1C/C(=C\OCc2ccccc2)O[C@H]1C: > 100 µM (inactive)
O=C1NCCN1/N=C/c1c(Cl)n(-c2ccccc2)c2ccccc12: 14.3 µM (inactive)
COc1cccc2c1C(=O)c1c(O)c3c(c(O)c1C2=O)CC(O)(C(=O)CO)CC3OC1CC(N)C(I)C(C)O1 (stereo unspecified): 13.3 µM (inactive)
COc1ccc2[nH]c(CCNC(=O)c3cc([N+](=O)[O-])cc([N+](=O)[O-])c3)cc2c1: > 100 µM (inactive)
Nc1ccc2nc(N)n[n+]([O-])c2c1: > 100 µM (inactive)
Cc1ccc2c(=O)cc(-c3cccc(F)c3)[nH]c2n1: 0.0224 µM (active)
COCCN1C2=CCCCC2=Nc2c1nc(N)[nH]c2=O: > 100 µM (inactive)
COc1ccc(/C=C\c2cc(OC)c(O[Si](C)(C)C(C)(C)C)c(OC)c2)cc1: 68.9 µM (inactive)

input: Fill: GI50 (COLO 205) for this molecule N#CC1CC(c2ccccc2)Nc2cc(Cl)ccc2N1 (stereo unspecified)
output: 7.11 µM (inactive)

input: Report GI50 from COLO 205 testing of `O=C1c2c(F)c(F)c(F)c(F)c2SC2=NCCN12`
output: 7.23 µM (inactive)

input: // fetch GI50; item: `COc1ccc2c3c([nH]c2c1[N+](=O)[O-])C(C)=NCC3` ; system: COLO 205
output: 15.2 µM (inactive)

Source of measurements: ChEMBL document CHEMBL1201862
